SYSTEM_NAME: C17orf48
ASSAY_REMARKS: pooled miR-30 sensor sort-seq; sequence = guide strand; note: reference of the scale not given here
CONDITIONS: shRNA
Everything with sensor-assay potency score (higher = more potent) lower than 0.05 is criterion not met; everything else, including exactly 0.05, is criterion met.

{"SEQUENCE_CONTENT": "TTCAACATCATTTTGTCAGGAT", "GROUP_LABEL": "criterion met"}
{"SEQUENCE_CONTENT": "TTCAATAACTCCTTCTAGGTTG", "GROUP_LABEL": "criterion not met"}
{"SEQUENCE_CONTENT": "TTCTTGTAATTCATAATTCTAT", "GROUP_LABEL": "criterion not met"}
{"SEQUENCE_CONTENT": "TATGTCTGTAGTATCGCCGCCT", "GROUP_LABEL": "criterion not met"}
{"SEQUENCE_CONTENT": "ATCGATGATATCTCCAAGCTGA", "GROUP_LABEL": "criterion not met"}
{"SEQUENCE_CONTENT": "TACACTGCTCGTATTTTGGAGA", "GROUP_LABEL": "criterion not met"}
{"SEQUENCE_CONTENT": "TATCTTCATACACTGCTCGTAT", "GROUP_LABEL": "criterion met"}
{"SEQUENCE_CONTENT": "TAGTGTTAAGTTTAGAGTGTGT", "GROUP_LABEL": "criterion met"}
{"SEQUENCE_CONTENT": "TGATCTTCTAGAAACTTAGTGT", "GROUP_LABEL": "criterion met"}

====

SYSTEM_NAME: CAPNS2
ASSAY_REMARKS: pooled miR-30 sensor sort-seq; sequence = guide strand
CONDITIONS: shRNA
VALUE_KIND: sensor-assay potency score (higher = more potent)

{"SEQUENCE_CONTENT": "TAAAATTCACAATTCCTCCAAC", "VALUE": -0.361}
{"SEQUENCE_CONTENT": "TATCTCCATCTTCATTAGCATA", "VALUE": -1.87}
{"SEQUENCE_CONTENT": "TATACTGAGCTGCTGCAGCCTC", "VALUE": -0.467}
{"SEQUENCE_CONTENT": "TTTGTGCTTAGAAAGGACTTTG", "VALUE": -0.468}
{"SEQUENCE_CONTENT": "TTGATAGACACTTGAATCAGGC", "VALUE": -0.108}
{"SEQUENCE_CONTENT": "TAATTCAGCAGTAAAAGGCAGC", "VALUE": -0.377}
{"SEQUENCE_CONTENT": "ATACTGCTTATAAACACACTGC", "VALUE": -0.451}
{"SEQUENCE_CONTENT": "TAAAATCCATATCTCCATCTTC", "VALUE": -0.0154}
{"SEQUENCE_CONTENT": "TCTATCTCTATCCAGAGACTTG", "VALUE": -1.33}
{"SEQUENCE_CONTENT": "TAGACACTTGAATCAGGCCATC", "VALUE": -1.43}

====

SYSTEM_NAME: CD48
ASSAY_REMARKS: pooled miR-30 sensor sort-seq; sequence = guide strand
CONDITIONS: shRNA
In this scheme, each record receives a class according to its sensor-assay potency score (higher = more potent); the ranges are A: < -0.9; B: ≥ -0.9 and < 0.09; C: ≥ 0.09

{"SEQUENCE_CONTENT": "TGATCTTCCATTCTTGCTCATT", "GROUP_LABEL": "A"}
{"SEQUENCE_CONTENT": "TTGTTTGTAGTTCTCAGGCAGG", "GROUP_LABEL": "A"}
{"SEQUENCE_CONTENT": "TTAACTTGAAAATCCTCGTTGA", "GROUP_LABEL": "C"}
{"SEQUENCE_CONTENT": "TCCCATTCTACAATCTTCTGGT", "GROUP_LABEL": "B"}
{"SEQUENCE_CONTENT": "TATCACACATGACAGTTTCAAA", "GROUP_LABEL": "A"}
{"SEQUENCE_CONTENT": "TTCTTGCTCATTCCCAGTCTTT", "GROUP_LABEL": "A"}
{"SEQUENCE_CONTENT": "TTGGCAAGTATAACACCTGGAG", "GROUP_LABEL": "B"}
{"SEQUENCE_CONTENT": "TTGATCTTCCATTCTTGCTCAT", "GROUP_LABEL": "C"}
{"SEQUENCE_CONTENT": "TAATGTTGTCACAATTTTGGGT", "GROUP_LABEL": "C"}
{"SEQUENCE_CONTENT": "TTCTATCTTCTCAATTTTGATG", "GROUP_LABEL": "B"}
{"SEQUENCE_CONTENT": "TTAGATTTTCTGGAATCCCATT", "GROUP_LABEL": "A"}
{"SEQUENCE_CONTENT": "TCAATTTTGATGACAGGCTTGG", "GROUP_LABEL": "C"}
{"SEQUENCE_CONTENT": "TTCTACAATCTTCTGGTCGAAA", "GROUP_LABEL": "B"}
